Molecular target: UniProtKB Q8JUX6
Sequence (Q8JUX6 536-1333): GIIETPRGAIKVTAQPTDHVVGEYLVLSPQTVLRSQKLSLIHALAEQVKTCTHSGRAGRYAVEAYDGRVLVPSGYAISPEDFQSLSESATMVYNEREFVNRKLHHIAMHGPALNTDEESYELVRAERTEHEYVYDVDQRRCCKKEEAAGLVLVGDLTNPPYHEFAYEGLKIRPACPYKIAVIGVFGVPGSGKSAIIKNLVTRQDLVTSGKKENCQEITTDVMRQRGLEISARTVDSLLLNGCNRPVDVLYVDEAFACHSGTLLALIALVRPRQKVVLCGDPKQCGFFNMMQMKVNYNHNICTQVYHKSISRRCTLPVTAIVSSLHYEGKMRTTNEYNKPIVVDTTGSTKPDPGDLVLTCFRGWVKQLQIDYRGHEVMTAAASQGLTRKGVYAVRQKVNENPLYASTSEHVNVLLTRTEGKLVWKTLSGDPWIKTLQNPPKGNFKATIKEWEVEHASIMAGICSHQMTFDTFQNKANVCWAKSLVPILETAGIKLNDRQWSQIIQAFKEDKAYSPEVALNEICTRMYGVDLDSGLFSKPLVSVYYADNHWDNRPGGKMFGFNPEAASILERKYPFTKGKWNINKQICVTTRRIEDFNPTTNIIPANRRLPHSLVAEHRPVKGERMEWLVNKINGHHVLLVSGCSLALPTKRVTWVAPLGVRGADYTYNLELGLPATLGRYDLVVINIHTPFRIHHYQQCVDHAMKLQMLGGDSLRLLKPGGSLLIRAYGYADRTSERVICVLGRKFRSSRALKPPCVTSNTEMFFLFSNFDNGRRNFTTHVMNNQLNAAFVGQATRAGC
Test: High throughput nsP2 ATPase activity assay (Malachite Green)
Details: read-out: Malachite Green % INHIBITION (RESCREEN)
For each of the molecules below, state its inhibition at 25 µM.
One number for each entry, in %.

Reference set (4 entries):
> print(dat)
                                   molecule       test.target          result.type  readout.unit  value
1  Cc1nc(CC2CCOC3(CCN(C(=O)C4(c5ccccc5)CCCC4)CC3)C2)no1 (stereo not drawn)  UniProtKB Q8JUX6  inhibition at 25 µM             %     82
2    Clc1cccc(CSC2=NC3(CCCCC3)Nc3ccccc32)c1  UniProtKB Q8JUX6  inhibition at 25 µM             %     54
3    Cc1ccc(CSc2nsc(SCc3ccc(C)cc3)c2C#N)cc1  UniProtKB Q8JUX6  inhibition at 25 µM             %     53
4  O=C(CN1C(=O)C2C3CCC(C3)C2C1=O)OCC(=O)c1ccc(Cl)cc1 (stereo not drawn)  UniProtKB Q8JUX6  inhibition at 25 µM             %     55

Dear reader, for each entry below, please note its inhibition at 25 µM.
1. Cc1c(Cl)ccc2c1NC(C(=O)O)C1CC=CC21 (stereo not drawn)
2. COc1ccc(OC)c(N2C(=O)/C(=C/c3ccco3)C(=O)NC2=S)c1
3. Fc1cccc(CSC2=NC3(CCCCC3)Nc3ccccc32)c1
4. O=C1c2oc3ccccc3c(=O)c2C(c2ccc(O)cc2)N1Cc1ccccc1Cl (stereo not drawn)
5. Clc1ccccc1CSC1=NC2(CCCCC2)Nc2ccccc21

Marked response:
1: 69; 2: 74; 3: 77; 4: 51; 5: 81
